molecular target: Syk kinase (Homo sapiens); construct: purchased; assay: Syk kinase inhibition, Caliper LabChip off-chip mobility-shift kinase assay; format: biochemical; conditions: read-out: Syk Enzyme IC50
pIC50: −log10 of the molar value.
Label scheme for pIC50: lower than 7 is 0 (no), 7 and above is 1 (yes).

## Input Entry CC(=O)N1CCN(CCc2ccc(Nc3nc(Nc4ccc(C)cn4)cc4cc[nH]c(=O)c34)cc2)CC1 : is its pIC50 no less than 7?
## Output 0 (no)

## Input Entry CN1CCC(Nc2nc(-c3cnc(N)nc3)cc3ccn(C)c(=O)c23)CC1 : is its pIC50 no less than 7?
## Output 0 (no)

## Input Entry CCC(C(=O)O)N1CCC(c2ccc(Nc3nc(-c4cncc(OC)n4)cc4cc[nH]c(=O)c34)cc2C)CC1 (centres unmarked) : is its pIC50 no less than 7?
## Output 1 (yes)

## Input Entry CC(C)(C)Nc1nc(-c2cnc(N)nc2)cc2cc[nH]c(=O)c12 : is its pIC50 no less than 7?
## Output 1 (yes)
